pIC50: −log10 of the molar value.
We begin with pIC50 values for Cytochrome P450 1A2 (Homo sapiens), as collected from the published literature.
quantity measured: pIC50

                                    compound  quantity_measured  endpoint_value
 0  COc1ccc(C(=O)Nc2ccc(F)c([C@@]3(C)N=C(N)O[C@H](C(F)(F)C4CC4)[C@@H]3F)c2)nn1              pIC50          ≤ 4.70
 1  CO[C@H]1[C@@H](C(F)(F)F)OC(N)=N[C@]1(C)c1cc(NC(=O)c2ccc(C#N)cn2)ccc1F              pIC50          ≤ 4.70
 2  COc1nccc(Oc2ccc(/N=c3\[nH]c(=O)n([C@@H](C)[C@@H](C)C(=O)O)c(=O)n3Cc3ccc(Cl)cc3)cc2)n1              pIC50          < 4.70
 3  C[C@]1(c2cc(NC(=O)c3ccc(F)cn3)ccc2F)N=C(N)OCC12CC(F)(F)C2              pIC50          ≤ 4.70
 4  COC[C@H]1SC(N)=N[C@](C)(c2cc(NC(=O)c3ccc(C#N)cn3)ccc2F)[C@H]1F              pIC50          ≤ 4.70
 5  CCOc1cnc(C(=O)Nc2ccc(F)c([C@@]3(C)N=C(N)S[C@H](C)[C@@H]3F)c2)cn1              pIC50          ≤ 4.70
 6  C[C@H]1SC(N)=N[C@](C)(c2cc(NC(=O)c3ccc(OCF)cn3)ccc2F)[C@H]1F              pIC50          ≤ 4.70
 7  C[C@]1(c2cc(NC(=O)c3cnc(OCF)cn3)ccc2F)N=C(N)S[C@H](CO)[C@@H]1F              pIC50          ≤ 4.70
 8  C[C@H]1SC(N)=N[C@](C)(c2cc(NC(=O)c3ccc(F)cn3)ccc2F)C12CC(F)(F)C2              pIC50          ≤ 4.70
 9  N#CC1(c2ccc(-c3ccc4nnc(C(F)(F)F)n4n3)cc2)CC1              pIC50    4.82 to 6.00
10  C[C@H]1SC(N)=N[C@](C)(c2nc(NC(=O)c3ccc(C#N)cn3)ccc2F)[C@H]1F              pIC50          ≤ 4.70
11  C[C@H]1SC(N)=N[C@](C)(c2cc(NC(=O)c3cnc(OCF)cn3)ccc2F)C12CC(F)(F)C2              pIC50          ≤ 4.70
12  O=C1COc2cc(NCc3cccc(C(=O)Nc4cccnc4)c3)c(Cl)cc2N1              pIC50            6.22
13  CO[C@H]1[C@@H](CF)OC(N)=N[C@]1(C)c1cc(NC(=O)c2ccc(F)cn2)ccc1Cl              pIC50          ≤ 4.70
14  FC1(F)CC(Oc2ccc(-c3ccc4nnc(C(F)(F)F)n4n3)cn2)C1              pIC50          < 4.52
15  COc1ccc(C(=O)Nc2ccc(F)c([C@@]3(C)N=C(N)S[C@H](C)[C@@H]3F)c2)nn1              pIC50          ≤ 4.70
16  C[C@]1(c2cc(NC(=O)c3ccc(C#N)cn3)ccc2F)N=C(N)SCC12CC(F)(F)C2              pIC50          ≤ 4.70
17  C[C@]1(c2cc(NC(=O)c3cnc(OCF)cn3)ccc2F)N=C(N)O[C@H](C(F)(F)C2CC2)[C@@H]1F              pIC50          ≤ 4.70
18  C[C@@H]1CN(S(=O)(=O)c2ccc(Cl)cc2)C[C@@H]1n1nc(CC(=O)O)c2ccc(F)cc21              pIC50          < 4.70
19  COc1cnc(C(=O)Nc2ccc(F)c([C@@]3(C)N=C(N)O[C@H]4[C@@H]3OCC4(F)F)c2)cn1              pIC50          ≤ 4.70
20  COC(F)(F)c1nnc2ccc(-c3ccc(OC(F)(F)F)cc3)nn12              pIC50          > 6.00
21  CC[C@@H](C#N)NC(=O)c1ccc(-c2nc(Nc3cnn(CC#N)c3)ncc2C)cc1              pIC50            4.35
22  Cc1cc(C#N)cnc1C(=O)Nc1ccc(F)c([C@@]2(C)N=C(N)O[C@H](C3(F)CC3)[C@@H]2F)c1              pIC50          ≤ 4.70
23  CC(C)Oc1ccc(S(=O)(=O)N2C[C@@H](C)[C@@H](n3nc(CC(=O)O)c4ccc(F)cc43)C2)c(F)c1              pIC50          < 4.70
24  COC(F)(F)c1nnc2ccc(-c3cnc(OCC(F)(F)F)c(F)c3)nn12              pIC50          < 4.52
25  Fc1cc(-c2cn3c(C(F)(F)F)nnc3cn2)cnc1OCC(F)(F)F              pIC50          < 4.52
26  CCOc1cc2c(cc1OC)-c1c/c(=N\c3c(C)cc(C)cc3C)n(CCNC(=O)c3c(O)nnn3C)c(=O)n1CC2              pIC50          ≤ 4.30
27  CCC(=O)NC1CCOc2c(-c3cc4c(s3)N(C)C(=O)CC4)cncc21 (single isomer, unassigned)              pIC50          < 4.30
28  CC(C)(Cn1c(=O)[nH]/c(=N\c2ccc(Oc3cnc(Cl)cn3)cc2)n(Cc2ccc(Cl)cc2)c1=O)C(=O)O              pIC50          < 4.70
